- System: A549 cells
- PROTOCOL TEXT: Cell proliferation assay Method B, A549
- Type: cell-based
- CONDITION LABEL: Homo sapiens, NSCLC, 72 hours, read-out: antiproliferative activity IC50, A549
MEASUREMENT NAME: IC50

compound="CS(=O)(=O)N1CCN(Cc2cc3nc(-c4cccc5[nH]ncc45)nc(N4CCOCC4)c3s2)CC1 [GDC-0941, reference compound]" measured_result="1 to 10 µM"

###

- Tested on: U87MG cells
- PROTOCOL TEXT: Cell proliferation assay Method B, U87MG
- Format: cell-based
- CONDITION LABEL: Homo sapiens, U-87 MG; Glioblastoma; Method B; 72 hours; read-out: antiproliferative activity IC50, U87MG
MEASUREMENT NAME: IC50

molecule=CNc1ncc(-c2nc(N3CCOCC3)c3sc(CN(C)c4ncc(C(=O)NO)cn4)cc3n2)cn1 measured_result="10 to 100 nM"
molecule=CN(Cc1cc2nc(-c3cccc(CO)c3)nc(N3CCOCC3)c2s1)c1ncc(C(=O)NO)cn1 measured_result="< 10 nM"
molecule="CS(=O)(=O)N1CCN(Cc2cc3nc(-c4cccc5[nH]ncc45)nc(N4CCOCC4)c3s2)CC1 [GDC-0941, reference compound]" measured_result="100 to 1000 nM"
molecule=Cc1ncc(-c2nc(N3CCOCC3)c3sc(CN(C)c4ncc(C(=O)NO)cn4)cc3n2)cn1 measured_result="10 to 100 nM"
molecule=CN(Cc1cc2nc(-c3ccc(N)cc3)nc(N3CCOCC3)c2s1)c1ncc(C(=O)NO)cn1 measured_result="< 10 nM"
